Test system: Fibroblast
Test: Multiplex assay against human fibroblast
Type: toxicity, cell-based
Settings: 12 h, 1 µM, compound concentration 1 uM, replicate 1
Each entry below carries its recorded Population Mitotic Cells (%).
measured endpoint: Population Mitotic Cells (%)

molecule="Cc1ccc(F)cc1C(=O)Nc1ccc(C(=O)N2Cc3cccn3Cc3ccccc32)c(Cl)c1 [LIXIVAPTAN]" numeric_readout=59
molecule=CCCn1c(=O)c2[nH]c(C3CCCC3)nc2n(CCC)c1=O numeric_readout=61
molecule="Cl.Clc1ccc2nsnc2c1NC1=NCCN1 [TIZANIDINE HYDROCHLORIDE]" numeric_readout=61
molecule=O=C1COc2nccc(-c3ccccc3F)c2CN1Cc1cc(C(F)(F)F)cc(C(F)(F)F)c1 numeric_readout=61
